target: TRPV1 receptor (Rattus norvegicus); test: TRPV1 modulation in DRG neurones: CGRP release in absence and presence of capsaicin (Assay 2); format: cell-based; set-up: The culture used for this experiment contained sensory neurones, Schwann cells and fibroblasts; endogenous in cells; host or cells: primary rat DRG sensory neurone culture (with Schwann cells and fibroblasts); settings: 20 min; test compound alone 3 μM, rat DRG sensory neurones, 20 min; read-out: CGRP release (% of capsaicin (1 μM) response)
Sequence (O35433 whole entry): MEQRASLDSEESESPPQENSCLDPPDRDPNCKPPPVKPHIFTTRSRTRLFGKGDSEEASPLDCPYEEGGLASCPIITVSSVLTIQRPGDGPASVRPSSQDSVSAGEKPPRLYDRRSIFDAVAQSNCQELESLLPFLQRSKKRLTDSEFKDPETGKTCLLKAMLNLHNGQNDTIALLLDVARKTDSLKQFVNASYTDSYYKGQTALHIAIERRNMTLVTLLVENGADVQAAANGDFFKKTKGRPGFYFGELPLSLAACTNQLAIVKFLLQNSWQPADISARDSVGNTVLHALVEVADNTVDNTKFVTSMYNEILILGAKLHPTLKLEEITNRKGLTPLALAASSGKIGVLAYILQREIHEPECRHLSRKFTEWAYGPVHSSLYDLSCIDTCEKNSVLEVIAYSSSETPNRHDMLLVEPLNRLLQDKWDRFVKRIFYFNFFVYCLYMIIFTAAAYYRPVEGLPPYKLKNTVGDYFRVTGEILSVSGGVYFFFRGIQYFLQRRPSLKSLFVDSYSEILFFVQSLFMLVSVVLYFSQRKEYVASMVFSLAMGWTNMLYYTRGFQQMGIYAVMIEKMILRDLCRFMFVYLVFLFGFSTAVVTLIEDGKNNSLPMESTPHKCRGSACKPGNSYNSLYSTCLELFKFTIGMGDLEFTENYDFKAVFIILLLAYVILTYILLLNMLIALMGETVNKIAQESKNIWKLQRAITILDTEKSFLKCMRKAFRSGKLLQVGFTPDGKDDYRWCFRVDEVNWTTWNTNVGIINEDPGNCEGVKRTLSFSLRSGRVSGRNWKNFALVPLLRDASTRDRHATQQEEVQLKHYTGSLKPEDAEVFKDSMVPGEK
Reported Metric: Emax at 3 µM (%)
Reply numerically in %, unit not repeated.

// below: answered compounds
Compound: COc1cc(CCC(=O)C(C)C(=O)c2ccccc2)ccc1O (stereo not drawn)
Measurement: 24
//
Compound: COc1cc(CCC(=O)CC(=O)c2ccc3ccccc3c2)ccc1O
Measurement: 66
//
Compound: COc1cc(CCC(=O)CC(=O)c2cccc3ccccc23)ccc1O
Measurement: 85
//
Compound: COc1cc(CCC(=O)C(C)C(=O)c2ccc(C)cc2)ccc1O (stereo not drawn)
Measurement: 120
//
Compound: COc1cc(CCC(=O)C(C)(C)C(=O)c2ccc(C)cc2)ccc1O
Measurement: 45
//
Compound: COc1cc(CCC(=O)C(C)C(=O)C(C)(C)C)ccc1O (stereo not drawn)
Measurement: 36

Tell me the measured Emax at 3 µM of `COc1cc(CCC(=O)CC(=O)c2ccccc2)ccc1O` , please.
49

Now the same for CCC(C(=O)CCc1ccc(O)c(OC)c1)C(=O)c1ccccc1 (stereo not drawn)
19

Now the same for COc1ccc(C(=O)C(C)C(=O)CCc2ccc(O)c(OC)c2)cc1 (stereo not drawn)
55

Now the same for `COc1cc(CCC(=O)CC(=O)c2ccc(O)c(OC)c2)ccc1O`
34

Now the same for `COc1cc(CCC(=O)CC(=O)c2ccccc2Cl)ccc1O`
54

Now the same for `COc1cc(CCC(=O)CC(=O)c2ccccc2-c2ccccc2)ccc1O`
139

Now the same for `COc1cc(CCC(=O)CC(=O)C(C)(C)c2ccccc2)ccc1O`
56
